assay: Determination of solubility in sodium phosphate buffers; assay type: physicochemical; conditions: aqueous buffer, thermodynamic from solid; pH 7.4 sodium phosphate buffer; read-out: Solubility pH 7.4
List of solubility at 1 h values.
parameter: solubility at 1 h

* C[C@@H](Nc1nc(C2=C(F)C(O)C(F)(F)CC2)nc(N2CC(F)(F)C2)n1)C(F)(F)F (stereo partly shown) | < 5 µg/mL
* CC(C)Nc1nc(N[C@H](C)C(F)(F)F)nc(C2=CC(O)CC2)n1 (mixture of isomers) | 19 µg/mL
* C[C@@H](Nc1nc(NCc2ccccn2)nc(C2=C(F)C(O)C(F)(F)CC2)n1)C(F)(F)F (mixture of isomers) | 124 µg/mL
* C[C@@H](Nc1nc(N[C@H](C)C(F)(F)F)nc(C2=C(F)C(O)C3(CC2)CC3)n1)C(F)(F)F (mixture of isomers) | 60 µg/mL

###

target: IDH1-R132H (Homo sapiens, UniProt O75874, R132H); assay: Fluorescent determination of IDH1-R132H cell activity (2-HG in U87MGR132H cells); conditions: 2-HG inhibition in U87MGR132H cells transfected with IDH1-R132H mutant plasmid
Sequence (O75874 whole entry R132H): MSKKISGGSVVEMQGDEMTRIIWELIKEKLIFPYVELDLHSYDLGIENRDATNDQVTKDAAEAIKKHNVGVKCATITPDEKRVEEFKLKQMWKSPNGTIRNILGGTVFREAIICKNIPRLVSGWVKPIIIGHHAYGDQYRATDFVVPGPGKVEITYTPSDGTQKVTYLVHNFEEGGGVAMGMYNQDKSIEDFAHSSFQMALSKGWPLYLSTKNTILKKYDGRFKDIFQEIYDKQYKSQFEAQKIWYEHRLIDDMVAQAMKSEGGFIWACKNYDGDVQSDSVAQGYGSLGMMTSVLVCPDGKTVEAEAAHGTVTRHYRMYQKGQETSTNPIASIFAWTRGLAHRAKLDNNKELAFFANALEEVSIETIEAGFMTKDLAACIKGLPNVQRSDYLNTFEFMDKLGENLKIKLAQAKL
pIC50: −log10 of the molar value.
List of pIC50 values.
parameter: pIC50

* C[C@@H](Nc1nc(NC2CCC(F)(F)CC2)nc(C2=CC(O)CCC2)n1)C(F)(F)F (stereo partly drawn) | 6.32
* C[C@@H](Nc1nc(NCC2CC2)nc(C2=C(F)C(O)C(F)CC2)n1)C(F)(F)F (single isomer, unassigned) [Compound 225] | 6.04
* C[C@@H](Nc1nc(N[C@H](C)C(F)(F)F)nc(C2=C(F)C(O)C(F)CC2)n1)C(F)(F)F (single isomer, unassigned) [Compound 97] | 7.33
* CC(C)Nc1nc(N[C@H](C)C(F)(F)F)nc(C2=C(F)C(O)C(F)CC2)n1 (single isomer, unassigned) [Compound 95] | 6.50
* C[C@@H](Nc1nc(N[C@H](C)C(F)(F)F)nc(C2=C(F)C(O)C(F)(F)CC2)n1)C(F)(F)F (single isomer, unassigned) [Compound 198] | 5.72
* OC1C(F)=C(c2nc(NC3CC(F)(F)C3)nc(NC3CC(F)(F)C3)n2)CCC1F (single isomer, unassigned) [Compound 201] | 6.96
* CC(Nc1nc(NC2CC(F)(F)C2)nc(C2=C(F)C(O)CCC2)n1)C(F)(F)F (racemic) | 6.12
* C[C@@H](Nc1nc(NOC(C)(C)C)nc(C2=C(F)C(O)C(F)(F)CC2)n1)C(F)(F)F (mixture of isomers) | 5.04

###

Molecular target: IDH2-R140Q (Homo sapiens, UniProt P48735, R140Q)
Sequence (P48735 40-452 R140Q): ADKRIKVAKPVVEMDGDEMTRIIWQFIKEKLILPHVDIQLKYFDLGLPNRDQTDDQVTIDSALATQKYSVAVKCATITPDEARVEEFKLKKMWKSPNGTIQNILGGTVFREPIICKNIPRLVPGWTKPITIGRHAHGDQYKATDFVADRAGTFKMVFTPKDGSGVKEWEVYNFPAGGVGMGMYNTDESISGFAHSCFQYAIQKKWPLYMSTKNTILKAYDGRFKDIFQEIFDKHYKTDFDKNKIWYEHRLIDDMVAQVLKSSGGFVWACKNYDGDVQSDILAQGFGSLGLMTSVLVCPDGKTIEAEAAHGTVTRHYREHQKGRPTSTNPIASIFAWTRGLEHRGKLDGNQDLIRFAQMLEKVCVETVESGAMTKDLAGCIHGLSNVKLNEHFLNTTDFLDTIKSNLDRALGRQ
Experiment: Fluorescent determination of IDH2-R140Q cell activity (2-HG in U87MGR140Q cells)
Conditions: 72 hours incubation, read-out: IC50 (2-HG inhibition)
pIC50: −log10 of the molar value.
parameter: pIC50

- C[C@@H](Nc1nc(N[C@H](C)C(F)(F)F)nc(C2=C(F)C(O)C(F)CC2)n1)C(F)(F)F (some centres unmarked) [Compound 266]: 7.48
- CC(C)Nc1nc(N[C@H](C)C(F)(F)F)nc(C2=CC(O)CC2)n1 (mixture of isomers): 5.78
- CC(C)(C)ONc1nc(Nc2ccnc(F)c2)nc(C2=C(F)C(O)CCC2)n1 (centres unmarked): 7.19
- CC(C)Nc1nc(N[C@H](C)C(F)(F)F)nc(C2=C(F)C(O)CC(C)(C)C2)n1 (mixture of isomers): 6.24
- OC1C(F)=C(c2nc(Nc3ccnc(C(F)(F)F)c3)nc(N3CCC(F)(F)C3)n2)CCC1(F)F (centres unmarked): 6.42
- CC(C)(C)ONc1nc(Nc2cc(C(F)(F)F)ncn2)nc(C2=C(F)C(O)CCC2)n1 (centres unmarked): 6.66
- C[C@@H](Nc1nc(Nc2ccn3ccnc3c2)nc(C2=C(F)C(O)CCC2)n1)C(F)(F)F (some centres unmarked): 5.50
- CC(C)Nc1nc(N[C@H](C)C(F)(F)F)nc(C2=CC(F)CCC2)n1 (mixture of isomers): 6.74
- CC(C)Nc1nc(N[C@H](C)C(F)(F)F)nc(C2=C(F)C(O)CCC2)n1 (mixture of isomers): 7.01
- [2H]C1([2H])CCC(c2nc(NC3CC(F)(F)C3)nc(N[C@@H](C)C(F)(F)F)n2)=C(F)C1([2H])O (mixture of isomers): 7.19
- CC(C)[C@H](C)Nc1nc(N[C@H](C)C(F)(F)F)nc(C2=C(F)C(O)CCC2)n1 (mixture of isomers): 6.49
- C[C@@H](Nc1nc(N[C@H](C)C(F)(F)F)nc(C2=C(F)C(O)C(F)CC2)n1)C(F)(F)F (some centres unmarked) [Compound 268]: 6.46
- C[C@@H](Nc1nc(N[C@H](C)C(F)(F)F)nc(C2=C(F)C(O)C(F)(F)CC2)n1)C(F)(F)F (single isomer, unassigned) [Compound 198]: 6.07
- C[C@@H](Nc1nc(NC2CC(F)(F)C2)nc(C2=C(F)C(O)C(F)CC2)n1)C(F)(F)F (single isomer, unassigned) [Compound 228]: 6.38
